Assay: chemical genetic growth profiling, strain panel (AID 1159580);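 also: tested at 20 µM; growth read once vehicle control cultures reached saturation at 30 °C; 1 = growth at the plate median or of vehicle wells; lower values mean less growth of the strain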
Conditions: S. cerevisiae deletion strains, growth OD, locus YJL164C, strain tpk1
Among all 5,500 compounds or so, about 2,000 (36%) were called active. Not shown: some 18% with an inconclusive outcome. Rule as the data show it: active = normalized growth mostly below about 0.91 (no sharp cut-off); inconclusive = no clear call, values can overlap the other calls; inactive = mostly above about 0.92. Some of the results follow.
// allowed return values: yes (1) for active, no (0) for inactive

stdin: # outcome recorded in this test, key = C[C@]12CCC3C(CC[C@H]4CC(=O)CC[C@]34C)C1CCC2=O (stereo partly drawn)
stdout: yes (1)

stdin: # outcome recorded in this test, key = O=c1[nH]c2ccccc2n1CCCN1CCC(n2c(=O)[nH]c3cc(Cl)ccc32)CC1
stdout: no (0)

stdin: # outcome recorded in this test, key = O=c1ccc2ccc(O)c(O)c2o1
stdout: no (0)

----------
Assay: chemical genetic growth profiling, strain panel (AID 1159580)
Details: S. cerevisiae deletion strains, growth OD, locus YEL061C, strain CIN8 (second series), hits give low values
Among all 5,500 compounds or so, about 2,000 (36%) were called active. Roughly 18% stayed inconclusive and do not appear here. Some of the results follow.
measure: normalized growth
Could you keep your reply to the number by itself?

Check out these entries, answers already filled in.
- molecule: "CSCCC(NC=O)C(=O)NC(CC(C)C)C(=O)NC(Cc1ccccc1)C(=O)O (stereo unspecified)"
  normalized growth: 1.02
- molecule: "CC(=O)N[C@@H](CC(=O)O)C(=O)O"
  normalized growth: 1.01

// NCCS : normalized growth value = 0.976

// CCCCC(=O)N(Cc1ccc(-c2ccccc2-c2nn[nH]n2)cc1)[C@H](C(=O)O)C(C)C : normalized growth value = 0.976

// CC1=C2CCC3C(CC[C@]4(C)C(=O)CCC34)[C@@]2(C)CCC1=O (stereo partly specified) : normalized growth value = 0.992

// CCOc1nc2cccc(C(=O)OC(C)OC(=O)OC3CCCCC3)c2n1Cc1ccc(-c2ccccc2-c2nn[nH]n2)cc1 (stereo unspecified) : normalized growth value = 1.02

----------
Experiment: chemical genetic growth profiling, strain panel (AID 1159580)
Settings: S. cerevisiae deletion strains, growth OD, locus YAL013W, strain DEP1
Out of some 5,500 compounds screened, about 2,000 (36%) were called active. Inconclusive results (about 18%) are left out. Rule as the data show it: active = normalized growth mostly below about 0.91 (no sharp cut-off); inconclusive = no clear call, values can overlap the other calls; inactive = mostly above about 0.92. This is one part of the list.
// allowed return values: class 1 = active, class 0 = inactive

Before answering, review these 9 worked examples.
- smi: "CCN(CC)CCNC(=O)COc1ccc(OC)cc1"
  class_name: "class 0"
- smi: "S=C(S)N1CCCC1"
  class_name: "class 1"
- smi: "N[C@@H](CCCC(=O)O)C(=O)O"
  class_name: "class 0"
- smi: "O=C1CCC(=O)N1CNc1ccccc1OC(F)(F)F"
  class_name: "class 0"
- smi: "N#Cc1ccc2c(c1)N(CCCN1CCC(O)CC1)c1ccccc1S2"
  class_name: "class 0"
- smi: "CC1(C)S[C@@H]2[C@H](NC(=O)COc3ccccc3)C(=O)N2[C@H]1C(=O)O"
  class_name: "class 0"
- smi: "O=c1n(CCCN2CCN(c3cccc(Cl)c3)CC2)nc2ccccn12"
  class_name: "class 0"
- smi: "CC(=O)CSc1nsc(SCC(C)=O)c1C#N"
  class_name: "class 0"
- smi: "CC[C@@H]1Cc2cc(O)ccc2C2=C1c1ccc(O)cc1C[C@H]2CC"
  class_name: "class 0"

Next compound, please.
stdin: # outcome recorded in this test, key = COc1cccc2c1[C@@H]1CN(CCCCn3c(=O)[nH]c4c(sc5ncc(-c6ccccc6)nc54)c3=O)C[C@@H]1CO2
stdout: class 0

----------
Experiment: chemical genetic growth profiling, strain panel (AID 1159580)
Settings: S. cerevisiae deletion strains, growth OD, locus YLR384C, strain iki3, hits give low values
Screen size: about 5,500 compounds; about 2,000 (36%) were called active. About 18% were inconclusive and are not listed. The list shows a part of the results.
Reported normalized growth values follow for various compounds

Check out these entries, answers already filled in.
- compound: "Cc1cc(C)nc(NS(=O)(=O)c2ccc(N)cc2)n1"
  normalized growth: "0.985 (inactive)"
- compound: "CC(C)(O)CC[C@@H](O)[C@](C)(O)C1CC[C@@]2(O)C3=CC(=O)C4C[C@@H](O)[C@@H](O)C[C@]4(C)C3CC[C@]12C (some centres undefined)"
  normalized growth: "0.985 (inactive)"
- compound: "CCCCC(=O)N(Cc1ccc(-c2ccccc2-c2nn[nH]n2)cc1)[C@H](C(=O)O)C(C)C"
  normalized growth: "1.01 (inactive)"

Here is the next item to consider.
// CCCc1nc(C(C)(C)O)c(C(=O)OCc2oc(=O)oc2C)n1Cc1ccc(-c2ccccc2-c2nn[nH]n2)cc1 : normalized growth value = 0.977 (inactive)

----------
Assay: chemical genetic growth profiling, strain panel (AID 1159580)
Conditions: S. cerevisiae deletion strains, growth OD, locus YJR066W, strain TOR1 (second series), hits give low values
About 2,000 (36%) of roughly 5,500 compounds were called active. About 18% were inconclusive and are not listed. The list shows a part of the results.
# note: exactly 0.5 is not below, so it is Not satisfied; use Satisfied for normalized growth strictly under it

- smi: "O=C(Nc1ccc(OC(F)(F)F)cc1)Nc1cncc(C(F)(F)F)c1"
  class_name: "Not satisfied"
- smi: "N#Cc1c(N)sc2c1CCc1ccccc1-2"
  class_name: "Satisfied"
- smi: "COc1cccc(C(=O)C(C#N)=C(SC)SC)c1"
  class_name: "Satisfied"

stdin: Item CN(C)c1nc(=S)ss1 : normalized growth beneath 0.5, strictly?
stdout: Satisfied

stdin: Item Cc1c(C(=O)NCCNc2ccc(C(F)(F)F)cc2[N+](=O)[O-])cnn1-c1ccc(F)cc1 : normalized growth beneath 0.5, strictly?
stdout: Not satisfied

stdin: Item N#C/C(=N/Nc1ccc(Cl)cc1)C(N)=S : normalized growth beneath 0.5, strictly?
stdout: Satisfied

stdin: Item N#CC(C#N)=NNc1ccc(-n2ccc(C(F)(F)F)n2)cc1 : normalized growth beneath 0.5, strictly?
stdout: Satisfied

stdin: Item Cc1c(Cl)cccc1N=C1SCC(=O)N1Cc1ccco1 : normalized growth beneath 0.5, strictly?
stdout: Not satisfied

----------
Assay: chemical genetic growth profiling, strain panel (AID 1159580);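 also: tested at 20 µM; growth read once vehicle control cultures reached saturation at 30 °C; 1 = growth at the plate median or of vehicle wells; lower values mean less growth of the strain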
Settings: S. cerevisiae deletion strains, growth OD, locus YER016W, strain bim1, hits give low values
Screen size: about 5,500 compounds; about 2,000 (36%) were called active. Inconclusive results (about 18%) are left out. The list shows a part of the results.
measure: normalized growth
Could you keep your reply to the number by itself?

Check out these entries, answers already filled in.
- compound: "CC(C)=CCc1c(O)cc2occ(-c3ccc4c(c3)OCO4)c(=O)c2c1O"
  normalized growth: 0.997
- compound: "CN1CCN(C(c2ccccc2)c2ccccc2)CC1"
  normalized growth: 0.971
- compound: "CC(=O)OC1CCC2C3CCc4cc(O)ccc4C3CCC12C (configuration not stated)"
  normalized growth: 0.918

// COc1cc(OC)c2c(=O)c(-c3ccc4c(c3)OCO4)coc2c1 : normalized growth value = 0.987

// CC(C)=CCC/C(C)=C/COc1ccc2ccc(=O)oc2c1 : normalized growth value = 0.986

// CC1=C2CCC3C(CC[C@]4(C)C(=O)CCC34)[C@@]2(C)CCC1=O (some centres not stated) : normalized growth value = 0.991

----------
Experiment: chemical genetic growth profiling, strain panel (AID 1159580);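 also: tested at 20 µM; growth read once vehicle control cultures reached saturation at 30 °C; 1 = growth at the plate median or of vehicle wells; lower values mean less growth of the strain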
Conditions: S. cerevisiae deletion strains, growth OD, locus YDL074C, strain BRE1
In all, about 5,500 compounds went through this assay and about 2,000 (36%) were called active. Not shown: some 18% with an inconclusive outcome. Cut-off read from the data, not from the text of the source: active = normalized growth mostly below about 0.91 (no sharp cut-off); inconclusive = no clear call, values can overlap the other calls; inactive = mostly above about 0.92. This is one part of the list.
// allowed return values: active, inactive

- compound: "CN1Cc2c(N)cccc2C(c2ccccc2)C1 (stereo not drawn)"
  class_name: "inactive"
- compound: "CCN(CC)CCNC(=O)COc1ccc(OC)cc1"
  class_name: "inactive"
- compound: "CC(=O)Oc1ccc2c(c1)CCC1C2CC[C@@]2(C)C1CC[C@@H]2OC(C)=O (stereo partly drawn)"
  class_name: "inactive"
- compound: "c1ccc2c(c1)[nH]c1cnccc12"
  class_name: "inactive"
- compound: "CC1(C)C[C@@H]2C(=O)CC[C@H]3O[C@]3(C)CC[C@H]21"
  class_name: "inactive"
- compound: "Cc1cc(C)nc(NS(=O)(=O)c2ccc(N)cc2)n1"
  class_name: "inactive"

Next compound, please.
stdin: # outcome recorded in this test, key = CC1(C)C=Cc2c(cc3occ(-c4ccc5c(c4)OCO5)c(=O)c3c2O)O1
stdout: inactive

----------
Test: chemical genetic growth profiling, strain panel (AID 1159580);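 also: tested at 20 µM; growth read once vehicle control cultures reached saturation at 30 °C; 1 = growth at the plate median or of vehicle wells; lower values mean less growth of the strain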
Settings: S. cerevisiae deletion strains, growth OD, locus YDR162C, strain NBP2, hits give low values
The campaign covered roughly 5,500 compounds. About 2,000 (36%) were called active. Inconclusive results (about 18%) are left out. Some of the results follow.
Kindly note that classification relies on normalized growth with these boundaries: category 1 (below 0.9), category 2 (0.9 to below 1), category 3 (1 or more)

- compound: "COc1cc2ccc(=O)oc2c(O)c1O"
  class_name: "category 2"

stdin: Please indicate the class for O=c1ccc2cc(O[C@@H]3O[C@H](CO)[C@@H](O)[C@H](O)[C@H]3O)c(O)cc2o1 based on its normalized growth.
stdout: category 3

stdin: Please indicate the class for CC(C)=CCOc1c2occc2cc2ccc(=O)oc12 based on its normalized growth.
stdout: category 1

stdin: Please indicate the class for CC(=O)OC1CCC23C(=O)OC45CCC(C6=CC(=O)OC6)C4(C)CCC2C5CCC3(O)C1 (stereo not given) based on its normalized growth.
stdout: category 3

stdin: Please indicate the class for C[C@]12CCC3c4ccc(O)cc4CCC3C1CC[C@@H]2OC(=O)CCC1CCCC1 (stereo not given in full) based on its normalized growth.
stdout: category 2
